Target: PRMT5/MEP50 protein complex (Homo sapiens (Human), UniProt O14744)
Sequence (O14744 other isoform, or with tags, fused parts or gaps): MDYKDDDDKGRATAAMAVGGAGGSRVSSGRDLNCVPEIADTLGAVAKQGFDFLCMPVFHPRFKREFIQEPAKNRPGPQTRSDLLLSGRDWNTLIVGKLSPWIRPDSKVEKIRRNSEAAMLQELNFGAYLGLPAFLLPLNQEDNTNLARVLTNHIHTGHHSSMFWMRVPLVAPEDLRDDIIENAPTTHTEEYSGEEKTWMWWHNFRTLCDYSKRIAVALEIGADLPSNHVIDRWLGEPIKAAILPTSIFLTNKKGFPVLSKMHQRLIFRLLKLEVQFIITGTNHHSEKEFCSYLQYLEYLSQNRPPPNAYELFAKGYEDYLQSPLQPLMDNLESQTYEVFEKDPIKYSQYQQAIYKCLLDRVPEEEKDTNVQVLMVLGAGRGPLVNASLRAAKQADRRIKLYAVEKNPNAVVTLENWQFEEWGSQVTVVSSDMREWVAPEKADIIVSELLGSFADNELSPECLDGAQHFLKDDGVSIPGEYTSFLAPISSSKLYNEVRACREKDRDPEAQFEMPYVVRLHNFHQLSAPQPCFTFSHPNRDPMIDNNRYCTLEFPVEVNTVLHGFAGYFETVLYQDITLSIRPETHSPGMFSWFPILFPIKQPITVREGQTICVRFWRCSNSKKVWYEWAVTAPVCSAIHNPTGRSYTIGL
Sequence (Q9BQA1 whole entry partner): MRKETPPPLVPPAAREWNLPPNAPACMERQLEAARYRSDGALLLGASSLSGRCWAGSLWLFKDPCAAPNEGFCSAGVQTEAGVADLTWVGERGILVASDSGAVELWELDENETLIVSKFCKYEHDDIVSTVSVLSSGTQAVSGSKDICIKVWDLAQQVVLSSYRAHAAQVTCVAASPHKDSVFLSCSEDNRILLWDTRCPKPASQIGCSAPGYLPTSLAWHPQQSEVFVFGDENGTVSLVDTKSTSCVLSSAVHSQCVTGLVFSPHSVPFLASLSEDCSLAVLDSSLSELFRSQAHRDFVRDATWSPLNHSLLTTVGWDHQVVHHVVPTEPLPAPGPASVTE
Test: PRMT5 biochemical assay (3H-SAM methylation of H4(1-21) peptide, filter plate scintillation)
Settings: 10 nM PRMT5/MEP50 complex, 200 nM H4(1-21) peptide, 1 uM SAM, 25 minute incubation at room temperature
reported metric: pIC50
In simple prose, pIC50 is minus the logarithm base ten of a concentration in moles per litre.

molecule="Cc1ncnc2c1ccn2[C@@H]1C[C@H](C(F)c2ccc(F)cc2)[C@@H](O)[C@H]1O (single isomer, unassigned) [Example 21]" value_reported=6.66
molecule="Cc1ncnc2c1ccn2[C@@H]1C[C@H]([C@@H](O)c2ccc(F)cc2)[C@@H](O)[C@H]1O [Example 10]" value_reported=6.03
molecule="Cc1ncnc2c1ccn2[C@@H]1C[C@H](Oc2cccc3c2CNC[C@H](C)O3)[C@@H](O)[C@H]1O [Example 210]" value_reported=9.00

Entry Cc1cc(N(C)[C@@H]2C[C@H]([C@@H](O)c3ccc(F)c(F)c3)[C@@H](O)[C@H]2O)ncn1 [Example 34] under PRMT5/MEP50 protein complex (Homo sapiens (Human), UniProt O14744) had pIC50 of 4.23

Given the molecule Cc1ncnc2c1c(F)cn2[C@@H]1C[C@H](Oc2cc(F)c(F)c3c2CNCC3)[C@@H](O)[C@H]1O [Example 177] and test system PRMT5/MEP50 protein complex (Homo sapiens (Human), UniProt O14744), the measured pIC50 is 8.40

###

Biological target: PRMT5/MEP50 protein complex (Homo sapiens (Human), UniProt O14744)
Assay: PRMT5 biochemical assay (3H-SAM methylation of H4(1-21) peptide, filter plate scintillation)
Details: 10 nM PRMT5/MEP50 complex, 200 nM H4(1-21) peptide, 1 uM SAM, 25 minute incubation at room temperature
Could you mark each record Condition met if its IC50 falls strictly under 60 nM, and Condition not met if it equals or exceeds it?

molecule=Cc1ncnc2c1c(F)cn2[C@@H]1C[C@H](Oc2cc(Cl)cc3c2CNCC3)[C@@H](O)[C@H]1O group="Condition met"
molecule="Cc1ncnc2c1ccn2C1C[C@H](Oc2cccc3ccncc23)[C@@H](O)[C@H]1O (some centres unmarked)" group="Condition not met"
molecule=Nc1ncnc2c1c(F)cn2[C@@H]1C[C@H](Oc2cc(Cl)c(F)c3c2CNCC3)[C@@H](O)[C@H]1O group="Condition met"
molecule=Cc1cc(O[C@H]2C[C@@H](n3ccc4c(C)ncnc43)[C@H](O)[C@@H]2O)c2c(c1F)CCNC2 group="Condition met"
molecule=Cc1ncc2c(F)cn([C@@H]3C[C@H](Oc4cc(F)c(F)c5c4CNCC5)[C@@H](O)[C@H]3O)c2n1 group="Condition met"
molecule=Cc1ncnc2c1ccn2[C@@H]1C[C@H](Oc2ccc(Cl)cc2OCCN)[C@@H](O)[C@H]1O group="Condition met"
molecule="CC1CNCc2c(O[C@H]3C[C@@H](n4cc(F)c5c(N)ncnc54)[C@H](O)[C@@H]3O)cc(C(F)F)c(F)c21 (some centres unmarked) [Example 215]" group="Condition met"
molecule=Cc1ncnc2c1ccn2[C@@H]1C[C@H](Oc2cccc3c2CNC[C@@H](C)O3)[C@@H](O)[C@H]1O group="Condition met"

*Q* Please let me know if COc1nc(O[C@H]2C[C@@H](n3ccc4c(C)ncnc43)[C@H](O)[C@@H]2O)c2c(c1F)CCNC2 shows IC50 below 60 nM.
*A* Condition met

*Q* Input Cc1ncnc2c1ccn2[C@H]1C[C@@H](Oc2ccccc2CN)[C@H](O)[C@@H]1O ; condition: IC50 strictly below 60 nM. Does it hold?
*A* Condition not met

*Q* Field: below-cutoff. Rule: recorded IC50 strictly less than 60 nM. Subject: Cc1nccc(N(C)[C@@H]2C[C@H]([C@H](O)c3ccc(F)c(F)c3)[C@@H](O)[C@H]2O)n1
*A* Condition not met

*Q* Input Cc1cc(N(C)[C@@H]2C[C@H]([C@H](O)c3ccc(F)c(F)c3)[C@@H](O)[C@H]2O)ncn1 ; condition: IC50 strictly below 60 nM. Does it hold?
*A* Condition not met

*Q* In plain terms, does O[C@@H]1[C@H](O)[C@@H]([C@H](O)c2ccc(F)c(F)c2)C[C@H]1Nc1ncnc2[nH]ccc12 come in under 60 nM for IC50?
*A* Condition not met

*Q* Does the reported IC50 of the following molecule sit strictly below 60 nM? Cc1ncc2c(F)cn([C@@H]3C[C@H](Oc4ccc(F)c5c4CNCC5)[C@@H](O)[C@H]3O)c2n1
*A* Condition met

Ref: patent US10709709B2
